- experiment.description: Cyclic voltammetry in 0.5 M NaCl
- Assay type: physicochemical
- test.conditions: neutral NaCl solution
measured.parameter: average redox potential of the two single-electron reductions (V)
One number for each entry, in V.

Q: Look at this compound and give its reported average redox potential of the two single-electron reductions. C[N+](C)(C)CCC[n+]1ccc(-c2nc3sc(-c4cc[n+](CCC[N+](C)(C)C)cc4)nc3s2)cc1.[Cl-].[Cl-].[Cl-].[Cl-] [[(NPr)2TTz]Cl4]
A: -0.44

====

- experiment.description: Aqueous solubility
- Type: physicochemical
- test.conditions: water; in H2O; read-out: solubility in water
measured.parameter: solubility (mM)
Numbers only, in mM.

Q: Look at this molecule and give its reported solubility. C[N+](C)(C)CCC[n+]1ccc(-c2nc3sc(-c4cc[n+](CCC[N+](C)(C)C)cc4)nc3s2)cc1.[Cl-].[Cl-].[Cl-].[Cl-] [[(NPr)2TTz]Cl4]
A: 1300
